System: Acinetobacter baumannii
EXPERIMENT DESCRIPTION: Antibacterial activity agains OXA23-producing multidrug resistant Acinetobacter baumannii assessed as reduction in bacterial growth incubated for 18 to 20 hrs by CLSI based microdilution method
Type: functional
TEST CONDITIONS: time 18-20 hrs

COMPOUND: [2H]C([2H])([2H])Nc1cc(F)cc2c1[nH]c1nc(Oc3cnc(C)nc3)nc(N3CC(=C(C)[C@H](C)N)C3)c12
QUANTITY UNIT: µg/mL
MIC: 0.5

COMPOUND: CCC(CN)=C1CN(c2nc(Oc3cnc(C(C)O)nc3)nc3[nH]c4c(NC)cc(F)cc4c23)C1 (stereo not drawn)
QUANTITY UNIT: µg/mL
MIC: 0.5

COMPOUND: C[C@H]1COc2c(N3CCN(C)CC3)c(F)cc3c(=O)c(C(=O)O)cn1c23.C[C@H]1COc2c(N3CCN(C)CC3)c(F)cc3c(=O)c(C(=O)O)cn1c23.O [LEVOFLOXACIN]
QUANTITY UNIT: µg/mL
MIC: 4

COMPOUND: CNc1cc(F)cc2c1[nH]c1nc(Oc3cnc(C)nc3)nc(N3CC(=CC(C)N)C3)c12 (stereo not drawn)
QUANTITY UNIT: µg/mL
MIC: 0.5

COMPOUND: CNc1cc(F)cc2c1[nH]c1nc(Oc3cnc(C)nc3)nc(N3CC(=C(C)C(C)N)C3)c12 (racemic)
QUANTITY UNIT: µg/mL
MIC: 0.25

COMPOUND: CCC(CN)=C1CN(c2nc(Oc3cnc(CO)nc3)nc3[nH]c4c(NC)cc(F)cc4c23)C1
QUANTITY UNIT: µg/mL
MIC: 1

COMPOUND: CNc1cc(F)cc2c1[nH]c1nc(Oc3cnc(C)nc3)nc(N3CC(=C(CN)C(C)C)C3)c12
QUANTITY UNIT: µg/mL
MIC: 0.5

COMPOUND: [2H]C([2H])([2H])Nc1cc(F)cc2c1[nH]c1nc(Oc3cnc(C)nc3)nc(N3CC(=C(CC)CN)C3)c12
QUANTITY UNIT: µg/mL
MIC: 0.25

* * *

Entries and their measured MIC follow.
System: Escherichia coli
EXPERIMENT DESCRIPTION: Antibacterial activity against ESBL-producing Escherichia coli ATCC 35218 strains 15 1 to 3 assessed as reduction in bacterial growth incubated for 18 to 20 hrs by CLSI based microdilution method
Type: functional
TEST CONDITIONS: time 18-20 hrs

COMPOUND: CNc1cc(F)cc2c1[nH]c1nc(Oc3cnc(C)nc3)nc(N3CC(=C(Br)CN)C3)c12
READOUT RELATION: =
MIC [µg/mL]: 0.06
//
COMPOUND: CCC(CN)=C1CN(c2nc(Oc3cnc(CO)nc3)nc3[nH]c4c(NC)cc(F)cc4c23)C1
READOUT RELATION: =
MIC [µg/mL]: 0.5
//
COMPOUND: CCC(CN)=C1CN(c2nc(Oc3cnc(C)nc3)nc3[nH]c4c(NC)cc(F)cc4c23)C1
READOUT RELATION: <
MIC [µg/mL]: 0.008
//
COMPOUND: CNc1cc(F)cc2c1[nH]c1nc(Oc3cnc(C)nc3)nc(N3CC(=CC(C)O)C3)c12 (stereo unspecified)
READOUT RELATION: =
MIC [µg/mL]: 0.5
//
COMPOUND: CNc1cc(F)cc2c1[nH]c1nc(Oc3cnc(C)nc3)nc(N3CC(=C(CN)C(C)C)C3)c12
READOUT RELATION: =
MIC [µg/mL]: 0.125
//
COMPOUND: CNc1cc(F)cc2c1[nH]c1nc(Oc3cnc(C)nc3)nc(N3CC(=CC(C)N)C3)c12 (stereo unspecified)
READOUT RELATION: =
MIC [µg/mL]: 0.125
